compounds and their reported inhibition at 10 µM
Biological target: µ opioid receptor (MOR) (Homo sapiens, UniProt P35372)
Sequence (P35372 whole entry): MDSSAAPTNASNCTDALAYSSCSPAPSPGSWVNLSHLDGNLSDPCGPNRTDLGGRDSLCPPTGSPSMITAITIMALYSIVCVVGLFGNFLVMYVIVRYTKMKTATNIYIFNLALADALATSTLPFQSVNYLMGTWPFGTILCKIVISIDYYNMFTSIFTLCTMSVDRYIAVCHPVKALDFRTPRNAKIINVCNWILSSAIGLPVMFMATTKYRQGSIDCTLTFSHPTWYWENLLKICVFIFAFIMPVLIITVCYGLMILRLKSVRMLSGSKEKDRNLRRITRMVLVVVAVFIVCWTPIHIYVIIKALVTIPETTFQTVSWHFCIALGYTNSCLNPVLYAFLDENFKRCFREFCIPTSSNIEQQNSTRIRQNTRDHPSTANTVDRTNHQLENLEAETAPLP
Test: Radioligand competition binding, MOR ([3H]-DAMGO), HEK293 cell homogenates
Settings: read-out: MOR % (percent inhibition), at 10,000 nM; [3H]-DAMGO
Express your answer in %, writing the number without its unit.

1. C#Cc1ccc2c(c1)C(c1ccccc1F)=N[C@@H](C)c1c(C(=O)N(C)C)ncn1-2; 18
2. C#Cc1ccc2c(c1)C(c1ccccc1F)=N[C@@H](C)c1c(C(=O)OC(C)(C)CC)ncn1-2; 30
3. C#Cc1ccc2c(c1)C(c1ccccc1)=NCc1c(-c3cnco3)ncn1-2; 5

Hello, please tell me recorded inhibition at 10 µM for this one: C#Cc1ccc2c(c1)C(c1ccccn1)=NCc1c(C(=O)OCC)ncn1-2
6

###

Molecular target: µ opioid receptor (MOR) (Homo sapiens)
Test: Radioligand competition binding, MOR ([3H]-DAMGO), HEK293 cell homogenates
Conditions: read-out: MOR % (percent inhibition), at 10,000 nM; [3H]-DAMGO
Would you mind labelling by inhibition at 10 µM? At or over 10% is yes, under is no.

1. C#Cc1ccc2c(c1)C(c1ccccn1)=N[C@H](C)c1c(C(=O)OC)ncn1-2 [GL-II-32]; yes
2. C#Cc1ccc2c(c1)C(c1ccccc1F)=N[C@@H](C)c1c(C(=O)OC(C)C)ncn1-2 [GL-I-31]; yes
3. C#Cc1ccc2c(c1)C(c1ccccn1)=NCc1c(-c3ocnc3C)ncn1-2 [KRM-III-79]; yes
4. C#Cc1ccc2c(c1)C(c1ccccc1F)=N[C@@H](C)c1c(C(=O)OCC)ncn1-2 [SH-053-2′F-S-CH3]; no
5. C#Cc1ccc2c(c1)C(c1ccccc1F)=N[C@@H](C)c1c(C(=O)NC3CC3)ncn1-2 [GL-I-55]; yes

For this molecule, is measured inhibition at 10 µM 10% or higher? CCOC(=O)c1ncn2c1[C@@H](C)N=C(c1ccccn1)c1cc(Br)ccc1-2 [GL-II-06]
yes

For this molecule, is measured inhibition at 10 µM 10% or higher? C[C@H]1N=C(c2ccccc2F)c2cc(C3CC3)ccc2-n2cnc(C(=O)N(C)C)c21 [GL-III-70]
no

For this molecule, is measured inhibition at 10 µM 10% or higher? C#Cc1ccc2c(c1)C(c1ccccn1)=NCc1c(C(=O)OC(C)C)ncn1-2 [MP-II-068]
no

For this molecule, is measured inhibition at 10 µM 10% or higher? C#Cc1ccc2c(c1)C(c1ccccc1F)=NCc1c(C(=O)OCc3ccccc3)ncn1-2 [MP-II-075]
no

For this molecule, is measured inhibition at 10 µM 10% or higher? C#Cc1ccc2c(c1)C(c1ccccc1F)=N[C@H](C)c1c(C(=O)OCC)ncn1-2 [SH-053-2′F-R-CH3]
yes

For this molecule, is measured inhibition at 10 µM 10% or higher? C#Cc1ccc2c(c1)C(c1ccccn1)=NCc1c(-c3nc(C)no3)ncn1-2 [MP-III-085]
no

For this molecule, is measured inhibition at 10 µM 10% or higher? C#Cc1ccc2c(c1)C(c1ccccn1)=NCc1c(-c3nc(CC)no3)ncn1-2 [MP-III-080]
no

For this molecule, is measured inhibition at 10 µM 10% or higher? C#Cc1ccc2c(c1)C(c1ccccc1F)=N[C@@H](C)c1c(C(=O)O)ncn1-2 [SH-053-2′F-S-CH3-Acid]
no

For this molecule, is measured inhibition at 10 µM 10% or higher? C#Cc1ccc2c(c1)C(c1ccccc1F)=NCc1c(-c3ocnc3C)ncn1-2 [KRM-III-65]
no

For this molecule, is measured inhibition at 10 µM 10% or higher? C#Cc1ccc2c(c1)C(c1ccccc1F)=NCc1c(-c3cnco3)ncn1-2 [KRM-II-18B]
yes

For this molecule, is measured inhibition at 10 µM 10% or higher? Cc1ncoc1-c1ncn2c1CN=C(c1ccccc1)c1cc(Br)ccc1-2 [KRM-III-66]
yes

For this molecule, is measured inhibition at 10 µM 10% or higher? COC(=O)c1ncn2c1[C@@H](C)N=C(c1ccccc1F)c1cc(Br)ccc1-2 [MP-III-058]
no
